test system: MS2 coat protein; assay: apparent KD of MS2 coat protein; higher = weaker reporter binding; conditions: Eterna round: R107; input ligand: theophylline 20 uM
OBSERVATION_TYPE: apparent KD of MS2 coat protein
The reply should read as a number followed by its unit.

# count of solved cases: 5
Q: Query (sequence): ACGUCUCGAAAACUCGUAGUAACUAUAGAUACCAGUAGCGAGAGUUACCCUUGGCAGCUACAUGAGGAUCACCCAUGUACGAGGA [XTheo A #28] ; field requested: apparent KD of MS2 coat protein
A: 20.9 nM

Q: Query (sequence): UGUAUAUACGGAAGGAGCGUGUAAGAUUAAGAACAUGAGGAUCACCCAUGUUUUAAGGGAACACAGGUAGGUCGCCGUAUAUAUG [11.O] ; field requested: apparent KD of MS2 coat protein
A: 14.1 nM

Q: Query (sequence): GUACAUGAGGAUCACCCAUGUAUAGUUGAAGGAGCGACCGGUGGGUCAGGUAGGUCGCAGCGCAUGGCGUCCACGCGUGUAUGCC [#1 Exclusion - Arginine A Attempt #29 (Inspired by Pi)] ; field requested: apparent KD of MS2 coat protein
A: 17.1 nM

Q: Query (sequence): AGAUGACACAGUGGAUAGCAAGAUGCCGAUACCAGCUAGGAAACUAGCCCUUGGCAGCGGUACAUGAGGAUCACCCAUGUAUCCU [EThA NP+V+V2 #10] ; field requested: apparent KD of MS2 coat protein
A: 15.1 nM

Q: Query (sequence): GGUGGCGUGACGGAUACCAGCCACCGCCGCAAGGCCACAUGAGGAUCACCCAUGUUGGGUGGCCCUUGGCAGCUGUCGUGCGGCG [#1 Same State - Theophylline B Attempt #21 (HarryS)] ; field requested: apparent KD of MS2 coat protein
A: 464 nM

***
Q: Query (sequence): GCUAGGUCUACGGCCGCCACUAGACGUGGGUAAGACAUGAGGAUCACCCAUGUACUACGGGCGAAUAGGACCGGGUAGACCUAGC [SSTB NP+V+V2 #14 Same Structure] ; field requested: apparent KD of MS2 coat protein
A: 499 nM

Q: Query (sequence): GCUGCUUUGGGAAGGAGCGCUGUGGUAGUGUGGCGGACAUGAGGAUCACCCAUGUGCCUGCAGCAGGUAGGUCGCUUAGGGCAGC [EAP NP+V+V2 #16] ; field requested: apparent KD of MS2 coat protein
A: 37.9 nM

Q: Query (sequence): GAUGAACUAUUUGAUACCAGACUACAUGAGGAUCACCCAUGUGUGUUAAUUUUUCAGUCAGUCCCUUGGCAGCAAAUAGUUUAUC [XTheo B #2] ; field requested: apparent KD of MS2 coat protein
A: 70.7 nM

----------
test system: MS2 coat protein; assay: apparent KD of MS2 coat protein; designed switch direction (-1 OFF switch, 1 ON switch): 1; higher = weaker reporter binding; conditions: input ligand: none
OBSERVATION_TYPE: apparent KD of MS2 coat protein (nM)
State the answer as a number, implicitly in nM.

Q: Query (sequence): CUCCCUUGGGUAGGAUAUCUAGGAUAUGGGAAAGACUAAGUCUGUAGGUCACCUAACCCAGAUGGAGAGAAGGACCCAACACUC [pwkr ssNG2 2FMN + F9.39] (Eterna round: R96, puzzle: Same State NG 2) ; field requested: apparent KD of MS2 coat protein
A: 15.8
